# Tested on: G-protein coupled receptor 35 (Homo sapiens)
# Experiment summary: inhibition of zaprinast-stimulated GPR35 beta-arrestin translocation – imaging, U2OS, beta-arrestin-GFP, zaprinast agonist, primary screen (AID 2058)
# Run parameters: zaprinast antagonism, at 10 µM, hits give high values
About 150 (0.052%) of roughly 290,000 compounds were called active. The list comes from a sample in which actives are over-represented; it also holds close analogues and randomly drawn compounds. Potency and affinity values are given separately.
Form field: inhibition (one value per entry).
Measurement label: inhibition (%)

[
  {
    "Compound": "COc1ccc(-c2cc3c(=O)n(CC(=O)NC4CCN(Cc5ccccc5)CC4)ncn3n2)cc1",
    "Assay result": 19.6
  },
  {
    "Compound": "CCOc1ccc(CNc2ccc3c(c2)nc(C)n3C)cc1",
    "Assay result": 4.9
  },
  {
    "Compound": "O=C(CCN1C(=O)/C(=C\\c2ccccc2)SC1=S)Nc1ccc(C(=O)O)cc1",
    "Assay result": 27.2
  },
  {
    "Compound": "O=C(CCN1C(=O)/C(=C/c2ccc3c(c2)OCO3)SC1=S)Nc1cccc(C(=O)O)c1",
    "Assay result": -7.5
  },
  {
    "Compound": "O=C(CCN1C(=O)/C(=C/c2ccc3c(c2)OCO3)SC1=S)Nc1ccccc1",
    "Assay result": 15.7
  },
  {
    "Compound": "Cc1ccc(F)cc1NC(=O)CSc1nc(Nc2ccccc2)nc(N2CCOCC2)n1",
    "Assay result": 17.7
  },
  {
    "Compound": "Cn1c(=O)n(CC(=O)N2CCOCC2)c2ccccc21",
    "Assay result": -9.9
  },
  {
    "Compound": "CCn1c(CC(=O)Nc2ccccc2F)nnc1SCC(=O)N1CCN(c2ccccc2)CC1",
    "Assay result": -10.6
  },
  {
    "Compound": "O=C(CCN1C(=O)/C(=C/c2ccc(Cl)cc2)SC1=S)Nc1ccc(C(=O)O)cc1",
    "Assay result": 6.4
  },
  {
    "Compound": "COc1ccc(/C=C2/S/C(=N/N=C3\\CC4CCC3(C)C4(C)C)NC2=O)cc1 (stereo not given)",
    "Assay result": 1.4
  },
  {
    "Compound": "CN1C(=S)N(c2cccnc2)C(=O)/C1=C\\c1ccc(N(C)C)cc1",
    "Assay result": 15.6
  },
  {
    "Compound": "O=C1CCCN2N=C(SCC(=O)Nc3ccccc3C(F)(F)F)SC2=N1",
    "Assay result": 1.9
  },
  {
    "Compound": "O=C(CCCN1C(=O)S/C(=C\\C=C\\c2ccccc2)C1=O)Nc1ccc(O)cc1",
    "Assay result": 18.5
  },
  {
    "Compound": "O=C(NCc1nnc(SCc2ccc(C(F)(F)F)cc2)n1-c1ccccc1)C12CC3CC(CC(C3)C1)C2",
    "Assay result": 89.4
  },
  {
    "Compound": "N#Cc1cccc(NC(=O)NCCc2c[nH]c3ccccc23)c1",
    "Assay result": -5.4
  },
  {
    "Compound": "CCOC(=O)/C=C(C)\\C=C\\c1c[nH]c2ccccc12",
    "Assay result": -3.8
  },
  {
    "Compound": "O=C(CN1C(=O)S/C(=C/C=C/c2ccccc2)C1=O)Nc1ccc(C(=O)O)cc1",
    "Assay result": -12.3
  },
  {
    "Compound": "COc1cccc(/C=C2/SC(=S)N(CCCC(=O)Nc3ccc(O)cc3)C2=O)c1",
    "Assay result": 24
  },
  {
    "Compound": "CCCCC[C@H]1CN(CCCC)C(=O)[C@@H]1CC(=O)NCc1ccc(OC)cc1",
    "Assay result": 8.5
  },
  {
    "Compound": "Cc1ccc(OCC(=O)N2CCN(C(=O)c3ccncc3)CC2)cc1",
    "Assay result": -6.5
  },
  {
    "Compound": "N#Cc1c(C(F)(F)F)cc(=O)[nH]c1SCC(=O)O",
    "Assay result": -12
  },
  {
    "Compound": "CCc1ccc(/C=C2/SC(=S)N(CCC(=O)Nc3ccc(C(=O)O)cc3)C2=O)cc1",
    "Assay result": -13.9
  },
  {
    "Compound": "O=C(CN1C(=O)S/C(=C\\C=C\\c2ccccc2)C1=O)Nc1ccc(C(=O)O)cc1",
    "Assay result": -0.2
  },
  {
    "Compound": "C[C@H](NC(=O)c1nc[nH]c1C(=O)N[C@H](C)c1ccccc1)C(=O)OC(C)(C)C",
    "Assay result": 5.8
  },
  {
    "Compound": "O=C(CCCN1C(=O)/C(=C/c2ccco2)SC1=S)Nc1cccc(C(=O)O)c1",
    "Assay result": 5.8
  },
  {
    "Compound": "Cc1cccc(/C=C2/S/C(=N/N=C3\\CC4CCC3(C)C4(C)C)NC2=O)c1 (stereo not given)",
    "Assay result": 1.3
  },
  {
    "Compound": "Nc1c(S(=O)(=O)c2cccs2)c2nc3ccccc3nc2n1CC1CCCO1 (stereo not given)",
    "Assay result": 4.2
  },
  {
    "Compound": "COc1ccccc1/C=C/C(=C1/C(=O)N(c2ccccc2)N=C1C)c1ccc(C)cc1",
    "Assay result": -2
  },
  {
    "Compound": "CCOc1ccccc1CN1CCN(Cc2cccc3nonc23)CC1CCO (stereo not given)",
    "Assay result": 28.2
  },
  {
    "Compound": "CCN(CC)S(=O)(=O)c1ccc(Cl)c(NC(=O)c2cc(Cl)ccc2Cl)c1",
    "Assay result": 7.1
  }
]
